List of PL values.
Species: Rattus norvegicus
TEST NAME: Open TG-GATES - Regimen: Single
Assay type: toxicity, organism-based, Sprague-Dawley
Design: regimen Single, gender Male, age 6 weeks
PROTOCOL CONDITIONS: in vivo, po, 0 mg/kg, 24 h, tissue Plasma, route gavage, dose level Control
PROPERTY: PL (mg/dL)

COc1ccc(Cc2nccc3cc(OC)c(OC)cc23)cc1OC [PAPAVERINE]: 142.6
C[C@H](CS)C(=O)N1CCC[C@H]1C(=O)O [CAPTOPRIL]: 146
NC(=O)N/N=C/c1ccc([N+](=O)[O-])o1 [NITROFURAZONE]: 149.2
Clc1ccccc1CN1CCc2sccc2C1 [TICLOPIDINE]: 134.2
CCc1cc(C(N)=S)ccn1 [ETHIONAMIDE]: 151.8
CN(C)CCC=C1c2ccccc2CCc2ccccc21 [AMITRIPTYLINE]: 153.8

###

Species on record: Rattus norvegicus
TEST NAME: Open TG-GATES - Regimen: Single
Assay type: toxicity, organism-based, Sprague-Dawley
Design: regimen Single, gender Male, age 6 weeks
PROTOCOL CONDITIONS: in vivo, po, 1000 mg/kg, 3 h, tissue Blood, route gavage, dose level High
List of Hb values.
PROPERTY: Hb (g/dL)

C[C@H](CS)C(=O)N1CCC[C@H]1C(=O)O: 13.6
CCc1cc(C(N)=S)ccn1 [ETHIONAMIDE]: 13.7
O=C(O)c1cn(C2CC2)c2cc(N3CCNCC3)c(F)cc2c1=O: 12.9
Clc1ccccc1CN1CCc2sccc2C1: 13
O=C(O)c1cc(/N=N/c2ccc(S(=O)(=O)Nc3ccccn3)cc2)ccc1O: 13.4

###

List of DBIL values.
Species: Rattus norvegicus
TEST NAME: Open TG-GATES - Regimen: Single
Assay type: toxicity, organism-based, Sprague-Dawley
Design: regimen Single, gender Male, age 6 weeks
PROTOCOL CONDITIONS: in vivo, po, 300 mg/kg, 9 h, tissue Plasma, route gavage, dose level Middle
PROPERTY: DBIL (mg/dL)

CCc1cc(C(N)=S)ccn1 [ETHIONAMIDE]: 0.01
Clc1ccccc1CN1CCc2sccc2C1 [TICLOPIDINE]: 0.072
O=C(O)c1cc(/N=N/c2ccc(S(=O)(=O)Nc3ccccn3)cc2)ccc1O [SULFASALAZINE]: 0.064
C[C@H](CS)C(=O)N1CCC[C@H]1C(=O)O [CAPTOPRIL]: 0.078
O=C(O)c1cn(C2CC2)c2cc(N3CCNCC3)c(F)cc2c1=O [CIPROFLOXACIN]: 0.082

###

Species: Rattus norvegicus
TEST NAME: Open TG-GATES - Regimen: Single
Format: toxicity, organism-based, Sprague-Dawley
Design: regimen Single, gender Male, age 6 weeks
PROTOCOL CONDITIONS: in vivo, po, 300 mg/kg, 24 h, tissue Blood, route gavage, dose level Middle
List of Bas values.
PROPERTY: Bas (%)

O=C(O)c1cn(C2CC2)c2cc(N3CCNCC3)c(F)cc2c1=O [CIPROFLOXACIN]: 0
C[C@H](CS)C(=O)N1CCC[C@H]1C(=O)O [CAPTOPRIL]: 0
O=C(O)c1cc(/N=N/c2ccc(S(=O)(=O)Nc3ccccn3)cc2)ccc1O [SULFASALAZINE]: 0
Clc1ccccc1CN1CCc2sccc2C1 [TICLOPIDINE]: 0.4
CCc1cc(C(N)=S)ccn1 [ETHIONAMIDE]: 0

###

Species on record: Rattus norvegicus
TEST NAME: Open TG-GATES - Regimen: Daily Repeat
Format: toxicity, organism-based, Sprague-Dawley
Parameters: regimen Daily Repeat, gender Male, age 6 weeks
PROTOCOL CONDITIONS: in vivo, po, 0 mg/kg, 72 h, tissue Blood, route gavage, dose level Control, time 3 day
List of MCHC values.
PROPERTY: MCHC (%)

CCc1cc(C(N)=S)ccn1 [ETHIONAMIDE]: 33.9
COc1ccc(Cc2nccc3cc(OC)c(OC)cc23)cc1OC: 33.4
O=C(O)c1cc(/N=N/c2ccc(S(=O)(=O)Nc3ccccn3)cc2)ccc1O: 34.7
C[C@H](CS)C(=O)N1CCC[C@H]1C(=O)O: 32.7
Clc1ccccc1CN1CCc2sccc2C1: 35.8

###

Organism: Rattus norvegicus
TEST NAME: Open TG-GATES - Regimen: Single
Assay type: toxicity, organism-based, Sprague-Dawley
Parameters: regimen Single, gender Male, age 6 weeks
PROTOCOL CONDITIONS: in vivo, po, 300 mg/kg, 6 h, tissue Plasma, route gavage, dose level Middle
List of TG values.
PROPERTY: TG (mg/dL)

CCc1cc(C(N)=S)ccn1 [ETHIONAMIDE]: 34.2
C[C@H](CS)C(=O)N1CCC[C@H]1C(=O)O: 50.4
O=C(O)c1cn(C2CC2)c2cc(N3CCNCC3)c(F)cc2c1=O: 36.2
O=C(O)c1cc(/N=N/c2ccc(S(=O)(=O)Nc3ccccn3)cc2)ccc1O: 79.8

###

Organism: Rattus norvegicus
TEST NAME: Open TG-GATES - Regimen: Single
Type: toxicity, organism-based, Sprague-Dawley
Parameters: regimen Single, gender Male, age 6 weeks
PROTOCOL CONDITIONS: in vivo, po, 1000 mg/kg, 9 h, tissue Blood, route gavage, dose level High
PROPERTY: RBC (x10_4/ul)

O=C(O)c1cn(C2CC2)c2cc(N3CCNCC3)c(F)cc2c1=O [CIPROFLOXACIN]: 601
O=C(O)c1cc(/N=N/c2ccc(S(=O)(=O)Nc3ccccn3)cc2)ccc1O [SULFASALAZINE]: 603.4
C[C@H](CS)C(=O)N1CCC[C@H]1C(=O)O [CAPTOPRIL]: 613.4
CCc1cc(C(N)=S)ccn1 [ETHIONAMIDE]: 657
Clc1ccccc1CN1CCc2sccc2C1 [TICLOPIDINE]: 629.8

###

Species on record: Rattus norvegicus
TEST NAME: Open TG-GATES - Regimen: Single
Assay type: toxicity, organism-based, Sprague-Dawley
Parameters: regimen Single, gender Male, age 6 weeks
PROTOCOL CONDITIONS: in vivo, po, 100 mg/kg, 3 h, tissue Plasma, route gavage, dose level Low
PROPERTY: IP (mg/dL)

O=C(O)c1cn(C2CC2)c2cc(N3CCNCC3)c(F)cc2c1=O: 9.8
Clc1ccccc1CN1CCc2sccc2C1: 10.6
CCc1cc(C(N)=S)ccn1 [ETHIONAMIDE]: 9.2
O=C(O)c1cc(/N=N/c2ccc(S(=O)(=O)Nc3ccccn3)cc2)ccc1O: 9.5
C[C@H](CS)C(=O)N1CCC[C@H]1C(=O)O: 9.7

###

Species on record: Rattus norvegicus
TEST NAME: Open TG-GATES - Regimen: Daily Repeat
Format: toxicity, organism-based, Sprague-Dawley
Set-up: regimen Daily Repeat, gender Male, age 6 weeks
PROTOCOL CONDITIONS: in vivo, po, 0 mg/kg, […], tissue Blood, route gavage, dose level Control, time 7 day
PROPERTY: Eos (%)

C[C@H](CS)C(=O)N1CCC[C@H]1C(=O)O [CAPTOPRIL]: 0.8
CN(C)CCC=C1c2ccccc2CCc2ccccc21 [AMITRIPTYLINE]: 1
NC(=O)N/N=C/c1ccc([N+](=O)[O-])o1 [NITROFURAZONE]: 1
CO[C@H]1/C=C/O[C@@]2(C)Oc3c(C)c(O)c4c(O)c(c(/C=N/N5CCN(C)CC5)c(O)c4c3C2=O)NC(=O)/C(C)=C\C=C\[C@H](C)[C@H](O)[C@@H](C)[C@@H](O)[C@@H](C)[C@H](OC(C)=O)[C@@H]1C [RIFAMPIN]: 0
NC(=O)N1c2ccccc2C=Cc2ccccc21 [CARBAMAZEPINE]: 1

###

Species: Rattus norvegicus
TEST NAME: Open TG-GATES - Regimen: Single
Type: toxicity, organism-based, Sprague-Dawley
Set-up: regimen Single, gender Male, age 6 weeks
PROTOCOL CONDITIONS: in vivo, po, 0 mg/kg, 24 h, tissue Plasma, route gavage, dose level Control
List of Na values.
PROPERTY: Na (meq/L)

CCc1cc(C(N)=S)ccn1 [ETHIONAMIDE]: 141.2
NC(=O)N1c2ccccc2C=Cc2ccccc21 [CARBAMAZEPINE]: 140.4
NC(=O)N/N=C/c1ccc([N+](=O)[O-])o1: 142
COc1cc2c(c3oc(=O)c4c(c13)CCC4=O)[C@@H]1C=CO[C@@H]1O2: 139.2
CC(=O)Oc1ccccc1C(=O)O: 141.2
CN(C)CCC=C1c2ccccc2CCc2ccccc21: 143.2
C[C@H](CS)C(=O)N1CCC[C@H]1C(=O)O: 140.2
O=C(O)c1cc(/N=N/c2ccc(S(=O)(=O)Nc3ccccn3)cc2)ccc1O: 140
CSc1ccc2c(c1)N(CCC1CCCCN1C)c1ccccc1S2 (stereo not drawn): 138.4
Cn1c(=O)c2[nH]cnc2n(C)c1=O.O: 143.4
Clc1ccccc1CN1CCc2sccc2C1: 141.8
COc1ccc(Cc2nccc3cc(OC)c(OC)cc23)cc1OC: 143
O=C(O)c1cn(C2CC2)c2cc(N3CCNCC3)c(F)cc2c1=O: 138.8

Where do these numbers come from? They come from ChEMBL document CHEMBL3885861.
